This collection of values is drawn from patent US8754071B2.

# experimental_target: c-kit (Homo sapiens, UniProt P10721)
# Construct: human Mo7e cells which endogenously express c-kit; endogenous in cells; host or cells: human Mo7e cells (promegakaryocytic leukemia line), stimulated with human recombinant SCF
# Sequence (P10721 26-976): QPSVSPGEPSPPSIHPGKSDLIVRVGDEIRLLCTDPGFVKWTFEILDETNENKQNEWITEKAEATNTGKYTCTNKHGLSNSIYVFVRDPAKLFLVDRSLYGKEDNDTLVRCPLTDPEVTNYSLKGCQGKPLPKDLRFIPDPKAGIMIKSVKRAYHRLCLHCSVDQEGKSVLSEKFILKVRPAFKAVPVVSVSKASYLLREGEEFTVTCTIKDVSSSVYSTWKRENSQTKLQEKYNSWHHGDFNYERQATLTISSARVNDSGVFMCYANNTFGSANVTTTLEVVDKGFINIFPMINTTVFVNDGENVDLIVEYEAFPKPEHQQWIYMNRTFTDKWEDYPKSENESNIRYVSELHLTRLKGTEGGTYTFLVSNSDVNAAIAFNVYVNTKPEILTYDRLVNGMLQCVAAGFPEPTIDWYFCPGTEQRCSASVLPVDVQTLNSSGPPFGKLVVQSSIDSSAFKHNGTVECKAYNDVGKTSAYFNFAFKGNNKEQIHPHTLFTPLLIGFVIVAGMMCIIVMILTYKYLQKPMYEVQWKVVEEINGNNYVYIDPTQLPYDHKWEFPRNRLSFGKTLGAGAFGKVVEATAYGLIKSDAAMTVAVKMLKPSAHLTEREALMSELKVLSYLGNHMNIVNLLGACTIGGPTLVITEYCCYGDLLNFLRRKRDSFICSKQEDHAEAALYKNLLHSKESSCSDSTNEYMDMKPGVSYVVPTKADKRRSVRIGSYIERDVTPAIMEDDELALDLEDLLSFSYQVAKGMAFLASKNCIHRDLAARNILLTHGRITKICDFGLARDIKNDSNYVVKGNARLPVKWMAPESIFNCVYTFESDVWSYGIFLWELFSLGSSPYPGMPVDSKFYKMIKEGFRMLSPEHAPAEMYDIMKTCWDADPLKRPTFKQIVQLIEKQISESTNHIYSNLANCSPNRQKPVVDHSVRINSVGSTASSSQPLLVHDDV
# assay_comment: Mo7e cell proliferation assay (SCF dependent proliferation)
# Assay type: cell-based
# condition_set: Table 2; human Mo7e cells stimulated with SCF, 48 hours, CellTiter Glo; 1% FBS; read-out: c-kit (Mo7e)
Group membership follows IC50 per the scheme bin 1 = under 0.2 µM, bin 2 = from 0.2 µM up to 0.9 µM, bin 3 = 0.9 µM and over

>>> df
                                    compound  class
 0  COCCOC(=O)N1CC(c2nc(-c3ccc(C)c(NC(=O)c4cnc5ccccn45)c3)no2)C1  bin 2
 1  Cc1ccc(-c2noc(COC(=O)NC3CN(C)C3)n2)cc1NC(=O)c1cnc2ccccn12  bin 2
 2  COC(=O)CS(=O)(=O)N1CC(c2nc(-c3ccc(C)c(NC(=O)c4cnc5ccccn45)c3)no2)C1  bin 3
 3  Cc1ccc(-c2noc([C@H]3COCCN3)n2)cc1NC(=O)c1cnc2ccccn12  bin 3
 4  Cc1cc(F)c(-c2noc(C3CN(C(=O)OC(C)(C)C)C3)n2)cc1NC(=O)c1cnc2ccccn12  bin 3
 5  Cc1ccc(-c2noc(C3CNC3)n2)cc1NC(=O)c1cnc2ccccn12  bin 3
 6  COC(=O)N1CCC[C@@H](c2nc(-c3ccc(C)c(NC(=O)c4cnc5ccccn45)c3)no2)C1  bin 1
 7  COC1CN(c2nc(-c3ccc(C)c(NC(=O)c4cnc5cc(C)ccn45)c3)no2)C1  bin 1
 8  CC(=O)N1CC(c2nc(-c3ccc(C)c(NC(=O)c4cnc5ccccn45)c3)no2)C1  bin 2
 9  Cc1ccc(-c2noc(C3CC[C@H](O)CO3)n2)cc1NC(=O)c1cnc2ccccn12 (stereo partly shown)  bin 1
10  COCc1n[nH]c(-c2ccc3ncc(C(=O)Nc4cc(-c5noc(C6CN(C(=O)OC)C6)n5)ccc4C)n3c2)n1  bin 2
11  COC(=O)N1CC(c2nc(-c3ccc(C)c(NC(=O)c4cnc5ccc(CC(C)(C)O)cn45)c3)no2)C1  bin 2
12  Cc1ccc(-c2noc(CN3CCCC3=O)n2)cc1NC(=O)c1cnc2ccccn12  bin 2
13  Cc1ccc(-c2nc(N3CC(C)(O)C3)no2)cc1NC(=O)c1cnc2ccccn12  bin 1
14  Cc1ccc(-c2noc(C3CCC(=O)N3)n2)cc1NC(=O)c1cnc2ccccn12 (stereo not shown)  bin 2
15  COC(=O)N1CCOC(c2nc(-c3ccc(C)c(NC(=O)c4cnc5ccccn45)c3)no2)C1 (stereo not shown)  bin 1
16  Cc1ccc(-c2noc(C3CN(C(=O)OC(C)C)C3)n2)cc1NC(=O)c1cnc2ccccn12  bin 2
17  Cc1ccc(-c2noc(C3CCNCC3)n2)cc1NC(=O)c1cnc2ccccn12  bin 3
18  Cc1ccc(-c2noc(C[C@@H]3CCCN3C(=O)OC(C)(C)C)n2)cc1NC(=O)c1cnc2ccccn12  bin 1
19  Cc1ccc(-c2noc(C3CN(C(=O)C(F)(F)F)C3)n2)cc1NC(=O)c1cnc2ccccn12  bin 2
20  Cc1ccc(-c2noc([C@@H]3CCCO3)n2)cc1NC(=O)c1cnc2ccccn12  bin 3
21  Cc1ccc(-c2noc([C@H]3CNCCO3)n2)cc1NC(=O)c1cnc2ccccn12  bin 2
22  CC(=O)N1CCC[C@@H]1c1nc(-c2ccc(C)c(NC(=O)c3cnc4ccccn34)c2)no1  bin 3
23  COC(=O)NC1(c2nc(-c3ccc(C)c(NC(=O)c4cnc5ccccn45)c3)no2)COC1  bin 1
24  COC(=O)N1CCC(Cc2nc(-c3ccc(C)c(NC(=O)c4cnc5ccccn45)c3)no2)CC1  bin 1
25  Cc1ccc(-c2noc(C3CN(S(=O)(=O)C4CCN(C(=O)OC(C)(C)C)CC4)C3)n2)cc1NC(=O)c1cnc2ccccn12  bin 1
26  Cc1ccc(-c2noc(CC3CCN(C(=O)OC(C)(C)C)CC3)n2)cc1NC(=O)c1cnc2ccccn12  bin 2
27  Cc1ccc(-c2noc(C3C[C@@H](O)CN3)n2)cc1NC(=O)c1cnc2ccc(F)cn12 (stereo partly shown)  bin 3
28  Cc1ccc(-c2noc([C@H]3CCCN3C(=O)OC(C)(C)C)n2)cc1NC(=O)c1cnc2ccccn12  bin 3
29  COC(=O)N1CC(c2nc(-c3ccc(F)c(NC(=O)c4cnc5ccccn45)c3)no2)C1  bin 2
30  Cc1ccc(-c2noc(CC3CCNCC3)n2)cc1NC(=O)c1cnc2ccccn12  bin 3
31  Cc1ccc(-c2noc([C@H]3C[C@@H](O)CN3)n2)cc1NC(=O)c1cnc2ccc(F)cn12  bin 3
